Reported IC50 values follow for various molecules
# measurement.target: PDE1C (Homo sapiens (Human), UniProt Q14123)
# Sequence (Q14123 whole entry): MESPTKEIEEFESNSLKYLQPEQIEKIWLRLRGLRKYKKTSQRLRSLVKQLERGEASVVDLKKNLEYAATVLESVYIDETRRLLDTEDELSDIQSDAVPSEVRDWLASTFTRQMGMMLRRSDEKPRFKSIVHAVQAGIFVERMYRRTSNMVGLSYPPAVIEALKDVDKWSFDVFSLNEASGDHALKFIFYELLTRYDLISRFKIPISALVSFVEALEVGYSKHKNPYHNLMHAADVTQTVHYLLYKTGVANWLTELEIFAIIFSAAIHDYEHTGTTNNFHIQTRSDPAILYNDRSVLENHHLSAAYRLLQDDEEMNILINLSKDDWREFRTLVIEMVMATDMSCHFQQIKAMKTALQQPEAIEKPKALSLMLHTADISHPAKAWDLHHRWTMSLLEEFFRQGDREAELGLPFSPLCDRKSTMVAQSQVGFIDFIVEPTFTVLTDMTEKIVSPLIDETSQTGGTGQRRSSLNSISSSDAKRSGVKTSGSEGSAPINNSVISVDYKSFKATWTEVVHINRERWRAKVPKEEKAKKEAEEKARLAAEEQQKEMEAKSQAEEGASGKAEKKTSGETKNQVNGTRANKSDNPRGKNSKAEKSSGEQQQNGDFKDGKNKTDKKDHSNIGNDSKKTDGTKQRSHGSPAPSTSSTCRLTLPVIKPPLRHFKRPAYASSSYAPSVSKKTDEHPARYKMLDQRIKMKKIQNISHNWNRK
# measurement.protocol: biochemical
# Format: biochemical
# test.conditions: 15 nM tritium labelled cAMP, 1 hr at room temperature, SPA beads
quantity.name: IC50 (nM)

CCOc1ncccc1-c1cc(NCc2cccnc2F)c2c(n1)c(C)nn2C(C)C ... 27
CCOc1ncccc1-c1cc(NCc2cnn(C)c2)c2c(n1)c(C)nn2CC ... 170
CCOc1ncccc1-c1cc(NCc2ccn(C)n2)c2c(cnn2C(C)C)n1 ... 150
CCOc1ncccc1-c1cc(NCc2nc[nH]n2)c2c(n1)c(C)nn2C(C)C ... 21
CCOc1ncccc1-c1cc(NCc2ccccc2F)c2c(n1)c(C)nn2C(C)C ... 93
COc1ncccc1-c1cc(NCc2cnn(C)c2)c2c(n1)c(C)nn2C(C)C ... 21
CCOc1ncccc1-c1cc(NCc2cnn(C)c2)c2c(n1)c(C)nn2C1CC1 ... 690
Cc1nn(C(C)C)c2c(NCc3cnn(C)c3)cc(-c3cnn(C)c3C)nc12 ... 220
CCOc1ncccc1-c1cc(NCc2ccc(C)nc2)c2c(n1)c(C)nn2C(C)C ... 13
CCOc1ncccc1-c1cc(NCc2nnc(C)s2)c2c(n1)c(C)nn2C(C)C ... 7.9
CCOc1ncccc1-c1cc(NCc2cc(C)on2)c2c(n1)c(C)nn2C(C)C ... 3
CCCOc1ncccc1-c1cc(NCc2cn[nH]c2)c2c(n1)c(C)nn2C(C)C ... 27
Cc1nn(C(C)C)c2c(NCc3cnn(C)c3)cc(-c3cccnc3OC(C)C)nc12 ... 9.1
CCN(C)c1ncccc1-c1cc(NCc2ccc(OC)cc2)c2c(n1)c(C)nn2C(C)C ... 1000
